Assay: collision cross section (DTIM-MS, N2); higher = larger ion
Settings: ion adduct: [M-H]-
measured-endpoint: collision cross section (Å²)

>>> meas_value("Nc1ccn(C[C@@H](CO)OCP(=O)(O)O)c(=O)n1 [Cidofovir]")
158.46
>>> meas_value("COC(=O)C1=CO[C@@H](O[C@@H]2O[C@H](CO)[C@@H](O)[C@H](O)[C@H]2O)[C@@H]2C(CO)=CC[C@H]12 [Geniposide]")
184.6
>>> meas_value("Cc1cc(=O)oc2ccc(O)cc12 [6-Hydroxy-4-methylcoumarin]")
135.48
>>> meas_value("C[C@H]1CC[C@]2(OC1)O[C@H]1C[C@H]3[C@@H]4CC=C5C[C@@H](O[C@@H]6O[C@H](CO)[C@@H](O[C@@H]7O[C@@H](C)[C@H](O)[C@@H](O)[C@H]7O)[C@H](O)[C@H]6O[C@@H]6O[C@@H](C)[C@H](O)[C@@H](O)[C@H]6O)CC[C@]5(C)[C@H]4CC[C@]3(C)[C@H]1[C@@H]2C [Dioscin]")
324.15
>>> meas_value("CC1(C)C=Cc2c(ccc3c2OC[C@@H](c2ccc(O)cc2O)C3)O1 [Glabridin]")
184.46
>>> meas_value("Cc1cc(O)c2c(c1)C(=O)c1cc(O)cc(O)c1C2=O [Emodin]")
155.06
